FYI, the data here is from patent US20100144733A1.

pIC50 for assorted compounds
- TESTED SYSTEM: CFTR (Homo sapiens, UniProt P13569)
- Construct: endogenous in cells; host or cells: T84 human colonic cells (ECACC)
- Sequence (P13569 whole entry): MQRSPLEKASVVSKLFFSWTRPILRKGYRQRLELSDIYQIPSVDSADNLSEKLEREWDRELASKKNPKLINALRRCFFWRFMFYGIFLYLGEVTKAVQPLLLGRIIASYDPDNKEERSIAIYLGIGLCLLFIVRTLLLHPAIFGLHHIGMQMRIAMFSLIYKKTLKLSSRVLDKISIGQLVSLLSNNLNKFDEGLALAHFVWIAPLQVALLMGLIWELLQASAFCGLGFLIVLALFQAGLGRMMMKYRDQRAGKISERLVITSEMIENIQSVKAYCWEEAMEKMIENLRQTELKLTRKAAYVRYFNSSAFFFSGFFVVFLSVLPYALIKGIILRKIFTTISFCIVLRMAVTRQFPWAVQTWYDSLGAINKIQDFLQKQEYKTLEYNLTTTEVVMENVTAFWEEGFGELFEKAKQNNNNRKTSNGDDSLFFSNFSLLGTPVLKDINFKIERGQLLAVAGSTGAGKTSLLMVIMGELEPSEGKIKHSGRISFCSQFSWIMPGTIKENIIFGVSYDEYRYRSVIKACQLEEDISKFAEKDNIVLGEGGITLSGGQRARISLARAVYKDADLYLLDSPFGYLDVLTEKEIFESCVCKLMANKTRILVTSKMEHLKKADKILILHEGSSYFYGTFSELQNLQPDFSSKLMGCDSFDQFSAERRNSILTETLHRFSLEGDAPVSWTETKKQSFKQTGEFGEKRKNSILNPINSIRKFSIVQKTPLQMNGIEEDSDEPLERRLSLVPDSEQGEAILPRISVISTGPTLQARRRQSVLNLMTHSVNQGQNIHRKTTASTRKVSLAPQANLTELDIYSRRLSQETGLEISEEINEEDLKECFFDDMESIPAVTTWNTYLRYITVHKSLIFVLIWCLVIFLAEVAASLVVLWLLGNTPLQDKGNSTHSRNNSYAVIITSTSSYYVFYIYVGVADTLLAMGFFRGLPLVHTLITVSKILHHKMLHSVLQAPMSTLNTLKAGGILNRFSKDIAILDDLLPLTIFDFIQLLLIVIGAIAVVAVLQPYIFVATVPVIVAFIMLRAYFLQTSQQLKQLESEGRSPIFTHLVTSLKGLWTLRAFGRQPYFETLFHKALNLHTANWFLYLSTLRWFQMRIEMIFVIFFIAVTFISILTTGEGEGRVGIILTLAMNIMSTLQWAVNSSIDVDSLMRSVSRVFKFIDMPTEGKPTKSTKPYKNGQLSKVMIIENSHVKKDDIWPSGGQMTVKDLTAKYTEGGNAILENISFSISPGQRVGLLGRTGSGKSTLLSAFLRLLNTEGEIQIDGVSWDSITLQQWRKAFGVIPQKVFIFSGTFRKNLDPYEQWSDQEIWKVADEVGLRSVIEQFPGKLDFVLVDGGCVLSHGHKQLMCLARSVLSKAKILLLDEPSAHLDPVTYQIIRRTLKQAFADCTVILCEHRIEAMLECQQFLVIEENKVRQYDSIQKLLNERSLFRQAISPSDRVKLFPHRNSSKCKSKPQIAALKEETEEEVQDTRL
- METHOD DESCRIPTION: T84 assay (FLIPR membrane potential dye, forskolin/IBMX-stimulated CFTR channel activity)
- Format: cell-based
- ASSAY SETUP: oxadiazole-containing compounds (a series), average of at least 2 runs unless annotated n = 1, read-out: IC50
pIC50: −log10 of the molar value.

# COMPOUND, pIC50
measured = [
    ("CN(Cc1ccc(F)c(F)c1)C(=O)c1noc(-c2cc(Cl)c(O)c(Cl)c2)n1 [117a]", 4.70),
    ("O=C(c1nc(-c2cc(Br)c(O)c(Br)c2)no1)N1CCC(Cc2ccccc2)CC1 [18a]", 4.91),
    ("O=C(NCc1ccccc1C(F)(F)F)c1nc(-c2cc(Br)c(O)c(Br)c2)no1 [36a]", 4.67),
    ("O=C(NCC(c1ccccc1)c1ccccc1)c1nc(-c2cc(Br)c(O)c(Br)c2)no1", 5.14),
    ("O=C(NCc1ccc(Cn2cccn2)cc1)c1noc(-c2cc(Cl)c(O)c(Cl)c2)n1 [156a]", 4.68),
    ("O=C(NCc1cccc(OC(F)(F)F)c1)c1nc(-c2cc(Br)c(O)c(Br)c2)no1 [12a]", 5.10),
    ("COCCOCCN(Cc1cccc(C(F)(F)F)c1)C(=O)c1nc(-c2cc(Cl)c(O)c(Cl)c2)no1 [111a]", 5.21),
    ("O=C(NCc1ccc(C(F)(F)F)cc1F)c1nc(-c2cc(Cl)c(O)c(Cl)c2)no1 [124a]", 4.84),
    ("CN(Cc1cccc(-c2ncccn2)c1)C(=O)c1nc(-c2cc(Cl)c(O)c(Cl)c2)no1 [176a]", 4.61),
    ("O=C(c1nc(-c2cc(Cl)c(O)c(Cl)c2)no1)N(Cc1cccnc1)Cc1cccc(C(F)(F)F)c1 [89a]", 5.60),
    ("O=C(NCc1ccc(Oc2cccc(Cl)c2)cc1)c1nc(-c2cc(Cl)c(O)c(Cl)c2)no1 [179a]", 4.97),
    ("O=C(NCc1cc(F)c(F)c(F)c1)c1noc(-c2cc(Cl)c(O)c(Cl)c2)n1 [118a]", 5.25),
    ("O=C(NCc1cccc(OC(F)F)c1)c1nc(-c2cc(Cl)c(O)c(Cl)c2)no1 [135a]", 4.69),
    ("O=C(NCc1ccc(Oc2ccc(F)c(C(F)(F)F)c2)cc1)c1nc(-c2cc(Cl)c(O)c(Cl)c2)no1 [200a]", 4.88),
    ("CC(C)(C)c1ccc(N2CCN(C(=O)c3nc(-c4cc(Br)c(O)c(Br)c4)no3)CC2)cc1 [25a]", 4.96),
    ("O=C(NCc1cccc(Cl)c1)c1noc(-c2cc(Cl)c(O)c(Cl)c2)n1 [86a]", 5.67),
    ("CN(Cc1cccc(C(F)(F)F)c1)C(=O)c1nc(-c2cc(Cl)c(O)c(Cl)c2)no1 [139a]", 5.29),
]

====

- TESTED SYSTEM: CHO-CFTR cell line (Homo sapiens, UniProt P13569)
- Construct: expressed in transfected cells; host or cells: CHO (CHO-CFTR cell line)
- Sequence (P13569 whole entry): as above
- METHOD DESCRIPTION: CHO-CFTR assay (FLIPR assay, same conditions as the T84 assay)
- Assay type: cell-based
- ASSAY SETUP: imidazole and triazole-containing compounds

# COMPOUND, TESTED SYSTEM, UNIT ANNOTATION, IC50
data = [
    ("O=C(c1ncn(-c2cc(Cl)c(O)c(Cl)c2)n1)N(Cc1cccnc1)Cc1ccc(Cl)c(Cl)c1 [109i]", "CHO-CFTR cell line (Homo sapiens, UniProt P13569)", "µM", 10.2),
    ("C=CCN(Cc1cccc(C(F)(F)F)c1)C(=O)c1ncn(-c2cc(Cl)c(O)c(Cl)c2)n1 [104i]", "CHO-CFTR cell line (Homo sapiens, UniProt P13569)", "µM", 41.9),
    ("C=CCN(Cc1ccc(Cl)c(Cl)c1)C(=O)c1ncn(-c2cc(Cl)c(O)c(Cl)c2)n1 [102i]", "CHO-CFTR cell line (Homo sapiens, UniProt P13569)", "µM", 2.69),
    ("O=C(NCc1cc(Cl)cc(Cl)c1)c1ncn(-c2cc(Cl)c(O)c(Cl)c2)n1 [36i]", "CHO-CFTR cell line (Homo sapiens, UniProt P13569)", "µM", 13.7),
    ("O=C(NCc1ccc(Oc2cc(F)c(F)c(F)c2)cc1)c1ncn(-c2cc(Cl)c(O)c(Cl)c2)n1 [65i]", "CHO-CFTR cell line (Homo sapiens, UniProt P13569)", "µM", 0.86),
    ("CC(C)N(Cc1ccc(Oc2ccccc2)cc1)C(=O)c1ncn(-c2cc(Cl)c(O)c(Cl)c2)n1 [95i]", "CHO-CFTR cell line (Homo sapiens, UniProt P13569)", "µM", 18.9),
    ("Oc1c(Cl)cc(-n2cnc(C(O)(Cc3ccccc3F)Cc3ccccc3F)n2)cc1Cl [59i]", "CHO-CFTR cell line (Homo sapiens, UniProt P13569)", "µM", 5.45),
    ("COCCOCCOCCN(Cc1ccc(Oc2ccccc2)cc1)C(=O)c1ncn(-c2cc(Cl)c(O)c(Cl)c2)n1 [119i]", "CHO-CFTR cell line (Homo sapiens, UniProt P13569)", "µM", 11.5),
    ("CC(C)(C)CCN(Cc1ccccc1)C(=O)c1ncn(-c2cc(Cl)c(O)c(Cl)c2)n1 [60i]", "CHO-CFTR cell line (Homo sapiens, UniProt P13569)", "µM", 5.45),
    ("CON(Cc1ccc(Oc2ccccc2)cc1)C(=O)c1ncn(-c2cc(Cl)c(O)c(Cl)c2)n1 [129i]", "CHO-CFTR cell line (Homo sapiens, UniProt P13569)", "µM", 22.5),
    ("CC(C)(C)C(=O)CN(Cc1ccc(C(C)(C)C)cc1)C(=O)c1ncn(-c2cc(Cl)c(O)c(Cl)c2)n1 [50i]", "CHO-CFTR cell line (Homo sapiens, UniProt P13569)", "µM", 18.5),
    ("CN(Cc1ccc(C(C)(C)C)cc1)C(=O)c1ncn(-c2cc(Cl)c(O)c(Cl)c2)n1", "CHO-CFTR cell line (Homo sapiens, UniProt P13569)", "µM", 5.38),
    ("CC(C)(C)c1ccc(C(O)(c2ccc(C(C)(C)C)cc2)c2ncn(-c3cc(Cl)c(O)c(Cl)c3)n2)cc1 [58i]", "CHO-CFTR cell line (Homo sapiens, UniProt P13569)", "µM", 17),
    ("Oc1c(Cl)cc(-n2cnc(C(O)(c3cccc(F)c3)c3cccc(F)c3)n2)cc1Cl [54i]", "CHO-CFTR cell line (Homo sapiens, UniProt P13569)", "µM", 22.7),
    ("CON(Cc1ccc(C(C)(C)C)cc1)C(=O)c1ncn(-c2cc(Cl)c(O)c(Cl)c2)n1 [127i]", "CHO-CFTR cell line (Homo sapiens, UniProt P13569)", "µM", 32.9),
    ("O=C(NCc1ccc(Oc2ccc(F)c(C(F)(F)F)c2)cc1)c1ncn(-c2cc(Cl)c(O)c(Cl)c2)n1 [67i]", "CHO-CFTR cell line (Homo sapiens, UniProt P13569)", "µM", 14.7),
    ("CC(C)N(Cc1ccc(C(C)(C)C)cc1)C(=O)c1ncn(-c2cc(Cl)c(O)c(Cl)c2)n1 [97i]", "CHO-CFTR cell line (Homo sapiens, UniProt P13569)", "µM", 35.5),
    ("O=C(NC(c1ccccc1)c1ccc(Cl)cc1)c1ncn(-c2cc(Cl)c(O)c(Cl)c2)n1 (centres unmarked) [33i]", "CHO-CFTR cell line (Homo sapiens, UniProt P13569)", "µM", 4.8),
    ("O=C(NCc1ccc(Oc2ccc(OCc3ccccc3)c(Cl)c2)cc1)c1ncn(-c2cc(Cl)c(O)c(Cl)c2)n1 [72i]", "CHO-CFTR cell line (Homo sapiens, UniProt P13569)", "µM", 12.3),
    ("CN(C)c1ccc(Oc2ccc(CNC(=O)c3ncn(-c4cc(Cl)c(O)c(Cl)c4)n3)cc2)cc1 [63i]", "CHO-CFTR cell line (Homo sapiens, UniProt P13569)", "µM", 6.72),
    ("CON(Cc1cccc(C(F)(F)F)c1)C(=O)c1ncn(-c2cc(Cl)c(O)c(Cl)c2)n1 [124i]", "CHO-CFTR cell line (Homo sapiens, UniProt P13569)", "µM", 6.03),
    ("O=C(NCc1ccc(Oc2ccc(OCc3ccccc3)c(F)c2)cc1)c1ncn(-c2cc(Cl)c(O)c(Cl)c2)n1 [71i]", "CHO-CFTR cell line (Homo sapiens, UniProt P13569)", "µM", 31),
    ("CC(C)c1ccc(CN(C(=O)c2ncn(-c3cc(Cl)c(O)c(Cl)c3)n2)C(C)C)cc1 [96i]", "CHO-CFTR cell line (Homo sapiens, UniProt P13569)", "µM", 22.1),
    ("CC(C)N(Cc1cccc(OC(F)(F)F)c1)C(=O)c1ncn(-c2cc(Cl)c(O)c(Cl)c2)n1 [99i]", "CHO-CFTR cell line (Homo sapiens, UniProt P13569)", "µM", 12),
    ("CC(C)(C)c1ccc(CN(Cc2cccnc2)C(=O)c2ncn(-c3cc(Cl)c(O)c(Cl)c3)n2)cc1 [93i]", "CHO-CFTR cell line (Homo sapiens, UniProt P13569)", "µM", 4.67),
    ("CC(C)(C)c1ccc(CN(Cc2ccccc2)C(=O)c2ncn(-c3cc(Cl)c(O)c(Cl)c3)n2)cc1 [82i]", "CHO-CFTR cell line (Homo sapiens, UniProt P13569)", "µM", 19.7),
    ("O=C(NCc1ccc(Oc2ccc(OC(F)(F)F)cc2)cc1)c1ncn(-c2cc(Cl)c(O)c(Cl)c2)n1 [66i]", "CHO-CFTR cell line (Homo sapiens, UniProt P13569)", "µM", 11.3),
    ("CCN(Cc1ccc(C(C)C)cc1)C(=O)c1ncn(-c2cc(Cl)c(O)c(Cl)c2)n1 [87i]", "CHO-CFTR cell line (Homo sapiens, UniProt P13569)", "µM", 20.6),
    ("O=C(NCc1ccc(F)c(Cl)c1)c1ncn(-c2cc(Cl)c(O)c(Cl)c2)n1 [23i]", "CHO-CFTR cell line (Homo sapiens, UniProt P13569)", "µM", 12.5),
]
